Criterion met means recorded pKa is 8 or above; Criterion not met means it is below 8.

Smiles Representation	Class
Brc1cc(Br)c(N=C2NCCN2)c(Br)c1	Criterion not met
Clc1ccc(N=C2NCCN2)c(Cl)c1	Criterion met
CS(=O)(=O)Nc1ccc(Nc2c3ccccc3nc3cc(N)ccc23)cc1	Criterion met
Cc1cc(Cl)c(N=C2NCCN2)c(Cl)c1	Criterion met
CCc1ccccc1Nc1c2ccccc2nc2ccccc12	Criterion not met
COc1ccccc1Nc1c2ccccc2nc2ccccc12	Criterion not met
COC(=O)Nc1ccc2c(Nc3ccc(NS(C)(=O)=O)cc3)c3ccccc3nc2c1	Criterion not met
CCN(CC)CCCN1c2cc(F)ccc2CCc2ccc(F)cc21.Cl	Criterion not met
NS(=O)(=O)Cc1ccc(Nc2c3ccccc3nc3ccccc23)cc1	Criterion not met
CN1CCN(Cc2ccccc2S(=O)(=O)c2csc(S(N)(=O)=O)c2)CC1.Cl	Criterion not met
CN(C)C(C)(C)CCCc1ccc(C(C)(C)C)cc1	Criterion met
Cc1nc(N)ncc1CNC(=O)Cn1c(C)ccc(NS(=O)(=O)Cc2cccc3c2OCCO3)c1=O	Criterion not met
CN(C)CCCC(C)(C)c1ccc(C(C)(C)C)cc1	Criterion met
COC(=O)Nc1ccccc1Nc1c2ccccc2nc2ccccc12	Criterion not met
CN(C)CCC=C1c2ccccc2CCc2ccccc21	Criterion met
O=C(NCCCNC1CCCCC1)[C@H]1C[C@@H]1c1ccccc1	Criterion met
Brc1ccccc1Nc1c2ccccc2nc2ccccc12	Criterion not met
CCc1ncc[nH]1	Criterion not met

---

Observed Property: pKa

Compound	Assay Value
Nc1cccc(Nc2c3ccccc3nc3ccccc23)c1	7.58
c1nc[nH]n1	2.19
CCOC(=O)c1ccc(N)cc1	2.5
c1cnon1	-5
CN1CCN(CCCN2c3ccccc3Sc3ccc(Cl)cc32)CC1	8.1
Cc1ccc(NS(=O)(=O)Cc2ccccc2)c(=O)n1CC(=O)NCc1nc(CN)cs1	7.4
CC12CC3(C)CC(C)(C1)CC(N)(C2)C3	10.6
CO/N=C(\C#N)C1CN2CCC1CC2 (stereo not given)	8.96
CN1C=CC(C2NC(C(F)(F)F)=CN2c2ccc(S(N)(=O)=O)cc2)C=C1 (stereo not given)	7.58
CC(=O)Nc1ccc2c(Nc3ccc(NS(C)(=O)=O)cc3)c3ccccc3nc2c1	7.34
N[C@H]1C[C@]1(F)c1ccccc1	7.35
CS(=O)(=O)Nc1ccc(Nc2c3ccccc3nc3cccc([N+](=O)[O-])c23)cc1	4.79
Cc1cc(OCCN2CCOCC2)nn1-c1ccc2ccccc2c1	6.5
CN(C)CCCCc1ccc(C2COC2)cc1	9.9
CC(=O)N[C@@H](Cc1cc(F)cc(F)c1)[C@H](O)CNC1(c2cccc(C(C)(C)C)c2)CC1	6.6
CC12CC3CC(C)(C1)CC(N)(C3)C2	10.4
CN1CCC[C@H]1c1cccnc1	8.1
C/C(=N\N=C(/S)N/N=C(\S)Nc1ccc(C(F)(F)F)cc1)c1ccccn1	6.77
CS(=O)(=O)NCc1ccccc1Nc1c2ccccc2nc2ccccc12	7.17
CN(C)CCCCc1ccc(C2(C)COC2)cc1	9.9
CC1=CN(c2ccc(S(N)(=O)=O)cc2)C(C2C=CN(C)C=C2)N1 (stereo not given)	7.26
O=C(Nc1noc2ccccc12)N1CCN(Cc2cccc(Oc3ccc(Cl)cc3)c2)CC1	-4.7
C[C@H](O)c1nccc(N2C[C@@H](C)N(c3ccnc([C@@H](C)O)n3)[C@@H](C)C2)n1	6
NCCCC(F)(F)F	9.7
CNC(=C[N+](=O)[O-])NCCSCc1csc(CN(C)C)n1	6.59

---

Recorded pKa by entry
Observed Property: pKa

Smiles Representation	Assay Value
Cc1ccc(NS(=O)(=O)Cc2ccccc2)c(=O)n1CC(=O)NCc1cnc(N)nc1	3.9
CS(=O)(=O)Nc1ccc(Nc2c3ccccc3nc3ccc(C(N)=O)cc23)cc1	6.34
CNC(=O)c1cccc2c(Nc3ccc(NS(C)(=O)=O)cc3OC)c3ccccc3nc12	6.36
CC(C)(C)NCc1ccc(S(=O)(=O)c2csc(S(N)(=O)=O)c2)cc1.Cl	8.08
Fc1ncc[nH]1	2.4
COc1cc(NS(C)(=O)=O)ccc1Nc1c2ccccc2nc2cc(Br)ccc12	6.84
O=C(C1CCN(c2ccncn2)CC1)N1CCN(S(=O)(=O)c2ccc(Br)cc2)CC1	6.1
COc1ccc([C@@H]2Sc3ccccc3N(CCN(C)C)C(=O)[C@@H]2OC(C)=O)cc1.Cl	8.06
CNc1ccc([N+](=O)[O-])c2c(NCCCN(C)C)ccnc12	4.22

---

Compound	pKa
CNC(=O)COc1cccc2c(Nc3ccc(NS(C)(=O)=O)cc3OC)c3ccccc3nc12	7.35
FC1(F)CCCNC1	7.4
O=C(O)c1ccc(-c2ccc(O[C@H]3O[C@H](CO)[C@@H](O)[C@H](O)[C@@H]3O)cc2)cc1	3.88
CCS(=O)(=O)c1nc(S(=O)(=O)c2ccc(Cl)cc2)c(N2CCc3ccccc3C2)s1	-8.66
COc1ccc(C(CCCN)(c2ccccc2)c2ccccc2)cc1	9.86
CN(C)CCCN1c2ccccc2CCc2ccc(Cl)cc21	9.38
COc1cc(NS(C)(=O)=O)ccc1Nc1c2ccccc2nc2ccc(N)cc12	7.37
CC(=O)Nc1ccc(Nc2c3ccccc3nc3ccccc23)cc1	7.51
Cc1cnc(NCCc2ccccc2)c(=O)n1CC(=O)NC[C@H]1CN=C(N)NC1	14
COc1ccc(-c2nnc(C(=O)N3CC(Oc4ccc(CN5CCCC56COC6)cc4)C3)o2)cc1	6
COc1cccc(S(=O)(=O)Nc2cccn(CC(=O)NCc3ccc(C(=N)N)cc3F)c2=O)c1	9.4
CN(C)CCCC1(c2ccc(C(C)(C)C)cc2)COC1	9.6
Nc1ccc(Nc2c3ccccc3nc3ccccc23)cc1	8.36
CCCCCS(=O)(=O)Nc1ccc(Nc2c3ccccc3nc3ccccc23)cc1	7.19
CN(C)CCCN1c2ccccc2Sc2ccccc21	9.4
BP(=O)(OC[C@H]1O[C@@H](n2cnc3c(N)nc(SC)nc32)[C@H](O)[C@@H]1O)OP(=O)(O)C(Cl)(Cl)P(=O)(O)O (some centres not stated)	7
CN1CC[C@H](N(C)C(=O)N2CC(c3cc(F)ccc3F)=C[C@@]2(CO)c2ccccc2)[C@@H](F)C1	6.6
O=C(c1ccc(CN2CCOCC2)cc1)N1CCN(C2CCC2)CC1	6.5
Nc1ccccn1	6.71
CN(C)CC(C)(C)CCc1ccc(C(C)(C)C)cc1	9.4
O=C1CC2(CCCC2)CC(=O)N1CCCCN1CCN(c2ncccn2)CC1	7.8
COc1ccc(Cl)cc1C(=O)NCCc1ccc(S(=O)(=O)NC(=O)NC2CCCCC2)cc1	5.3
CN(C)CCNC(=O)c1cccc2c(N)c3ccccc3nc12	8.3
COc1cc(NS(C)(=O)=O)ccc1Nc1c2ccccc2nc2c(-c3ccccc3)cccc12	7.02
CN(C)CCCNc1ccnc2cccc([N+](=O)[O-])c12	6.39
CC(C)NC1=NS(=O)(=O)c2cc(Cl)ccc2N1	9.51
COc1cc(NS(C)(=O)=O)ccc1Nc1c2ccccc2nc2c(Cl)cccc12	6.11
CS(=O)(=O)Nc1ccc(Nc2c3ccccc3nc3cc(Br)ccc23)cc1	6.56
FC1(Cc2ccccc2)CCN(CCCc2c[nH]c3ccc(-n4cnnc4)cc23)CC1	8.8
CS(=O)(=O)Nc1ccc(Nc2c3ccccc3nc3ccccc23)c(Cl)c1	6.34
C/C(=N\N=C(/S)N/N=C(\S)Nc1cccc(I)c1)c1ccccn1	7.03
Cc1cccc(Cl)c1N=C1NCCN1	9.4
CN(c1ccccc1Nc1c2ccccc2nc2ccccc12)S(C)(=O)=O	6.97
CN1CCN2c3ccccc3Cc3ccccc3C2C1 (configuration not stated)	7.1
Cc1ccccc1N=C1NCCN1	10.2
NC(=O)C(F)(F)F	17.2
O=C1Nc2ccc(Cl)cc2C1(c1c[nH]c2ccccc12)c1c[nH]c2ccccc12	-6.84

---

Recorded pKa by entry
Observed Property: pKa

Molecule	Assay Value
OCCN1CCN(CCCN2c3ccccc3Sc3ccc(Cl)cc32)CC1	7.8
COc1cc(NS(C)(=O)=O)ccc1Nc1c2ccccc2nc2c(C#N)cccc12	4.87
Cc1cccc(C)c1N=C1NCCN1	10.5
COc1cc(NS(C)(=O)=O)ccc1Nc1c2ccccc2nc2ccc(I)cc12	6.6
COc1cc(NS(C)(=O)=O)ccc1Nc1c2ccccc2nc2ccc(C)cc12	7.45
COc1cc2nc(N3CCN(C(=O)C4CCCO4)CC3)nc(N)c2cc1OC (configuration not stated)	7.1
O=P(O)(O)CCc1ccccc1	2.34
Cc1nc2c(/C=C/Cc3ccccc3)cccn2c1N	6.75
CN(C)CC(F)(F)F	4.8
Cc1nc(N)ncc1CNC(=O)Cn1c(C)cnc(NCCc2ccc3c(c2)CCO3)c1=O	4.2
NC(=O)CCCc1ccc(Nc2c3ccccc3nc3ccccc23)cc1	7.67
O=c1[nH]c2cc(Cl)ccc2c(O)c1-c1ccccc1	5.4
COc1cc(Nc2c3ccccc3nc3ccccc23)ccc1NS(C)(=O)=O	7.03
CN1C=CN(C2NC(C(Cl)(Cl)Cl)=CN2c2ccc(S(N)(=O)=O)cc2)C=C1 (configuration not stated)	7.68
c1ccc(CC2CCN(CCCc3c[nH]c4ccc(-n5cnnc5)cc34)CC2)cc1	9.7
CNCc1cn(S(=O)(=O)c2cccnc2)c(-c2cccnc2F)c1F	8.54
CC(NCCC(c1ccccc1)c1ccccc1)c1ccccc1 (configuration not stated)	9.04
